# System: COLO 205 (Colon Cancer)
# Assay explanation: NCI one dose, COLO 205
# Type: cell-based, human
# Measurement parameters: COLO 205, 1.00E-5 Molar one dose
Consider the following compounds; for each one, report its Growth Percent.
Please respond with the number in % and leave the unit unwritten.

The recorded Growth Percent for "COc1cc(CNC(=O)[C@@H]2CS[C@@]3(C)c4ccccc4C(=O)N23)cc(OC)c1OC" is 105.48

Measured Growth Percent, "C[C@@]12SC[C@@H](C(=O)NCc3ccccc3C(F)(F)F)N1C(=O)c1ccccc12" : 104.03

get_value(item= "COc1cccc(CNC(=O)[C@@H]2CS[C@@]3(C)c4ccccc4C(=O)N23)c1" , readout=Growth Percent) returns 115.50

In plain terms, "C[C@@]12SC[C@@H](C(=O)NCc3ccccc3Br)N1C(=O)c1ccccc12" has a documented Growth Percent of 111.70

# compound "C[C@@]12SC[C@@H](C(=O)NCc3ccccc3)N1C(=O)c1ccccc12" ; its Growth Percent = 108.00

Measured Growth Percent, "COc1cccc(CNC(=O)[C@@H]2CS[C@H]3c4ccccc4C(=O)N23)c1" : 112.81

Short answer for "COc1ccccc1CNC(=O)[C@@H]1CS[C@@]2(C)c3ccccc3C(=O)N12" : Growth Percent was 105.75

The recorded Growth Percent for entry "COc1ccccc1CNC(=O)[C@@H]1CS[C@H]2c3ccccc3C(=O)N12" equals 111.29

Form: compound = "COc1ccc(CNC(=O)[C@@H]2CS[C@@]3(C)c4ccccc4C(=O)N23)cc1" ; Growth Percent = 108.39

Per the records, this compound ( "COc1ccc(CNC(=O)[C@@H]2CS[C@@]3(C)c4ccccc4C(=O)N23)cc1OC" ) has Growth Percent equal to 107.68

Reported Growth Percent ( "C[C@@]12SC[C@@H](C(=O)NCc3ccc(Cl)cc3Cl)N1C(=O)c1ccccc12" ) = 109.32

GET /value?item= "C[C@@]12SC[C@@H](C(=O)NCc3cccc(C(F)(F)F)c3)N1C(=O)c1ccccc12" &field=Growth Percent returns 104.27

For "COc1ccc(CNC(=O)[C@@H]2CS[C@H]3c4ccccc4C(=O)N23)cc1OC" the compound record lists Growth Percent as 111.84

====

Provide the recorded Growth Percent for the entries that follow.
# System: MOLT-4 (Leukemia)
# Assay explanation: NCI one dose, MOLT-4
# Type: cell-based, human
# Measurement parameters: MOLT-4, 1.00E-5 Molar one dose
# Experimental: 3.4. Cell Proliferation Assay Selected compounds were tested on a panel of 60 human cancer cell lines at the National Cancer Institute (NCI), Germantown, MD, USA. The cytotoxicity studies were conducted using a 48 h exposure protocol using the sulfo-rhodamine B assay.
Hi! Could you send only the number? It should be in %, unit omitted.

Entry "O=C(NCc1ccccc1)[C@@H]1CS[C@H]2c3ccccc3C(=O)N12" , tested on MOLT-4 (Leukemia), has a reported Growth Percent of 95.69

For the compound "COc1ccc(CNC(=O)[C@@H]2CS[C@@]3(C)c4ccccc4C(=O)N23)cc1" , the measured Growth Percent on MOLT-4 (Leukemia) was 76.38

Entry "C[C@@]12SC[C@@H](C(=O)NCc3ccccc3Br)N1C(=O)c1ccccc12" , tested on MOLT-4 (Leukemia), has a reported Growth Percent of 82.96

The compound "O=C(NCc1ccccc1C(F)(F)F)[C@@H]1CS[C@H]2c3ccccc3C(=O)N12" , when measured on MOLT-4 (Leukemia), yielded Growth Percent of 85.46

MOLT-4 (Leukemia) assay, compound "COc1cccc(CNC(=O)[C@@H]2CS[C@H]3c4ccccc4C(=O)N23)c1" , recorded Growth Percent = 80.83

Assay MOLT-4 (Leukemia), sample "COc1ccc(CNC(=O)[C@@H]2CS[C@H]3c4ccccc4C(=O)N23)cc1OC" , Growth Percent read: 99.18

Considering "O=C(NCc1cccc(C(F)(F)F)c1)[C@@H]1CS[C@H]2c3ccccc3C(=O)N12" , its Growth Percent with MOLT-4 (Leukemia) was recorded as 86.93

Here "C[C@@]12SC[C@@H](C(=O)NCc3ccccc3C(F)(F)F)N1C(=O)c1ccccc12" was tested on MOLT-4 (Leukemia), and its Growth Percent came to 74.60

Tested system MOLT-4 (Leukemia); Growth Percent recorded for "COc1ccccc1CNC(=O)[C@@H]1CS[C@@]2(C)c3ccccc3C(=O)N12" was 96.78

FYI, the data here is from paper PMC11855478.
